Tested on: LXRa:RXRa (NR concentration 270 nM, RXRa partner concentration 90 nM)
Assay Details: PBM binding z-score (relative to random genomic background probes); higher = stronger binding; sequences stand for … in GC…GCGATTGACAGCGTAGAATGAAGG
We begin with a simple list: items and their reported PBM binding z-score.

Sequence Content | PBM binding z-score
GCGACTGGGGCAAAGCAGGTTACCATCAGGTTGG | 0.0244
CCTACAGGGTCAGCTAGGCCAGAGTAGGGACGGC | 2.61
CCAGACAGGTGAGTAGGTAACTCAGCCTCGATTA | 0.14
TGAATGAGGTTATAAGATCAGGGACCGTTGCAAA | 1.26
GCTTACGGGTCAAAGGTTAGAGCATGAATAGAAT | 5.34
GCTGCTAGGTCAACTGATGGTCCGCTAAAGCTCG | 2.46
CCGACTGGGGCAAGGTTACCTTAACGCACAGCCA | 0.54
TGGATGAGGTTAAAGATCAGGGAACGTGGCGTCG | 2.74
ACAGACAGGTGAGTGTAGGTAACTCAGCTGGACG | -0.0272
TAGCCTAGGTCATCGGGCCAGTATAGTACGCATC | 3.33
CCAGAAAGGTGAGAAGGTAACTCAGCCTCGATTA | 0.782
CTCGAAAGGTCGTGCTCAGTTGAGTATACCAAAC | 3.75
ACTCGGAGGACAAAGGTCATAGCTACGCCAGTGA | 5.52
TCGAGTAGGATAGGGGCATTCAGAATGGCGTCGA | -0.388
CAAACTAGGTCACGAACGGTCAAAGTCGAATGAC | 7.42
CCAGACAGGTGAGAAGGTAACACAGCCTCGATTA | 0.2
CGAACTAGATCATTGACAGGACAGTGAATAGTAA | -0.268
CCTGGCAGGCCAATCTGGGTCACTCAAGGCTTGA | 0.927
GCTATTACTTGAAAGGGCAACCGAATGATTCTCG | 0.738
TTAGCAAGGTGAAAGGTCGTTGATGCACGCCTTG | 2.78
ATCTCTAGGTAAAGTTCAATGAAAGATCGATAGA | 3.13
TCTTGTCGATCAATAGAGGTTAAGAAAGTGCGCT | 3.69
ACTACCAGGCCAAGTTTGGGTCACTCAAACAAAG | 0.276
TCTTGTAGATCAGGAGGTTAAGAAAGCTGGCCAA | 0.738
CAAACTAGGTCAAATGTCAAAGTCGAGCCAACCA | 4.61
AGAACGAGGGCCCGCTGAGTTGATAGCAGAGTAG | -1.1
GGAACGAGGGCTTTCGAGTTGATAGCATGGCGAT | -0.418
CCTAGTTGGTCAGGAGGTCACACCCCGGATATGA | 3.05

###

Tested on: PXR:RXRa (NR concentration 270 nM, RXRa partner concentration 90 nM)
Assay Details: PBM binding z-score (relative to random genomic background probes); higher = stronger binding; sequences stand for … in GC…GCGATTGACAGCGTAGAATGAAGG
We begin with a simple list: items and their reported PBM binding z-score.

Sequence Content | Measured Target | PBM binding z-score
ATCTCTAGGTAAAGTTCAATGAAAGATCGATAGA | PXR:RXRa (NR concentration 270 nM, RXRa partner concentration 90 nM) | 3.02
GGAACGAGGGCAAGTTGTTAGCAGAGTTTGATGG | PXR:RXRa (NR concentration 270 nM, RXRa partner concentration 90 nM) | 0.979
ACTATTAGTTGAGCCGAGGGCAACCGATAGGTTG | PXR:RXRa (NR concentration 270 nM, RXRa partner concentration 90 nM) | 1.43
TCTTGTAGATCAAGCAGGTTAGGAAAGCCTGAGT | PXR:RXRa (NR concentration 270 nM, RXRa partner concentration 90 nM) | -0.00169
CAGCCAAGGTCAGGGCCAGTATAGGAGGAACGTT | PXR:RXRa (NR concentration 270 nM, RXRa partner concentration 90 nM) | 2.13
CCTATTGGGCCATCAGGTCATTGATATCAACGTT | PXR:RXRa (NR concentration 270 nM, RXRa partner concentration 90 nM) | 1.84
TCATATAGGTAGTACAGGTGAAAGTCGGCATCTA | PXR:RXRa (NR concentration 270 nM, RXRa partner concentration 90 nM) | 0.715
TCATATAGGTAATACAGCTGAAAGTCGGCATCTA | PXR:RXRa (NR concentration 270 nM, RXRa partner concentration 90 nM) | 0.684
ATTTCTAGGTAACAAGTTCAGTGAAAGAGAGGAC | PXR:RXRa (NR concentration 270 nM, RXRa partner concentration 90 nM) | 1.79
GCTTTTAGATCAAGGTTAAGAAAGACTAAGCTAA | PXR:RXRa (NR concentration 270 nM, RXRa partner concentration 90 nM) | 0.507
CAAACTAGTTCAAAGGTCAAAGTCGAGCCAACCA | PXR:RXRa (NR concentration 270 nM, RXRa partner concentration 90 nM) | 6.85
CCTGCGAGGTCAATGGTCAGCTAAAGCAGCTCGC | PXR:RXRa (NR concentration 270 nM, RXRa partner concentration 90 nM) | 4.55
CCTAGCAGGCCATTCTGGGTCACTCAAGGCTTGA | PXR:RXRa (NR concentration 270 nM, RXRa partner concentration 90 nM) | 1.61
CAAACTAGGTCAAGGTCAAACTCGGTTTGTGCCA | PXR:RXRa (NR concentration 270 nM, RXRa partner concentration 90 nM) | 5.44
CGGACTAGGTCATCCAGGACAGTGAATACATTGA | PXR:RXRa (NR concentration 270 nM, RXRa partner concentration 90 nM) | 1.59
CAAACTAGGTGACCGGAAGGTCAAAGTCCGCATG | PXR:RXRa (NR concentration 270 nM, RXRa partner concentration 90 nM) | 4.49
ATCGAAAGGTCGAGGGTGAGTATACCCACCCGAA | PXR:RXRa (NR concentration 270 nM, RXRa partner concentration 90 nM) | 2.41
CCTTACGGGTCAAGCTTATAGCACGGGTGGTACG | PXR:RXRa (NR concentration 270 nM, RXRa partner concentration 90 nM) | 2.77
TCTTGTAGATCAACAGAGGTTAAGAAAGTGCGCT | PXR:RXRa (NR concentration 270 nM, RXRa partner concentration 90 nM) | 3.06
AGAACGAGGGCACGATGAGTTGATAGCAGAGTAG | PXR:RXRa (NR concentration 270 nM, RXRa partner concentration 90 nM) | 1.17
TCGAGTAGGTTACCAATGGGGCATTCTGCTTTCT | PXR:RXRa (NR concentration 270 nM, RXRa partner concentration 90 nM) | -0.0891
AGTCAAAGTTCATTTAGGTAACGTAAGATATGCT | PXR:RXRa (NR concentration 270 nM, RXRa partner concentration 90 nM) | 5.45
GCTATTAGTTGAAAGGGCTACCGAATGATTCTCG | PXR:RXRa (NR concentration 270 nM, RXRa partner concentration 90 nM) | -0.465
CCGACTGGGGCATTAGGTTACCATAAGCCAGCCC | PXR:RXRa (NR concentration 270 nM, RXRa partner concentration 90 nM) | -0.496
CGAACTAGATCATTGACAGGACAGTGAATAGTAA | PXR:RXRa (NR concentration 270 nM, RXRa partner concentration 90 nM) | 0.285
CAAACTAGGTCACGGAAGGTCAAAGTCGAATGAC | PXR:RXRa (NR concentration 270 nM, RXRa partner concentration 90 nM) | 6.99
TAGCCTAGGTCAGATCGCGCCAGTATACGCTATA | PXR:RXRa (NR concentration 270 nM, RXRa partner concentration 90 nM) | 0.262
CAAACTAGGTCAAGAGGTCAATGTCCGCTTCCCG | PXR:RXRa (NR concentration 270 nM, RXRa partner concentration 90 nM) | 5.63
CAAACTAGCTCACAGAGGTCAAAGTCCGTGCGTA | PXR:RXRa (NR concentration 270 nM, RXRa partner concentration 90 nM) | 5.9

###

Tested on: LXRb:RXRa (NR concentration 270 nM, RXRa partner concentration 90 nM)
Assay Details: PBM binding z-score (relative to random genomic background probes); higher = stronger binding; sequences stand for … in GC…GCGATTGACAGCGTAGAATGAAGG
Measurement Kind: PBM binding z-score

Sequence Content | Recorded Number
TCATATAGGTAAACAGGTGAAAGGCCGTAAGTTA | 0.971
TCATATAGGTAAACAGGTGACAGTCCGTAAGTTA | 0.84
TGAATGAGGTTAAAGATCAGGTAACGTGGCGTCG | 1.82
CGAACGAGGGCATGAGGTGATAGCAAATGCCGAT | 0.317
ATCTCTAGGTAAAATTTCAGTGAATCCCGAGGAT | 0.162
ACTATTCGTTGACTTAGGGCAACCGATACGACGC | 0.263
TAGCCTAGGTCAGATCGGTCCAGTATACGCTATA | 0.809
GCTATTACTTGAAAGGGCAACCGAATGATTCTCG | 0.831
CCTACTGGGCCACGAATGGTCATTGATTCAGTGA | -0.606
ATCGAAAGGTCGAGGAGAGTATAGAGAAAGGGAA | 2.47
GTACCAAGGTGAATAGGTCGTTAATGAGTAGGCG | 0.302
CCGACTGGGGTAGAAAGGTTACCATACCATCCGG | 1.06
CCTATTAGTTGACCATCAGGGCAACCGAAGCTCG | 0.105
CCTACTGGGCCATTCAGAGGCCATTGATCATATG | -0.326
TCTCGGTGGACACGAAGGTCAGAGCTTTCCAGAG | 1.36
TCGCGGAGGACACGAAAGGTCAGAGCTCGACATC | 3.12
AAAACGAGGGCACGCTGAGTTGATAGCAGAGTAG | 0.344
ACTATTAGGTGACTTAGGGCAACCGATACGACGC | 0.142
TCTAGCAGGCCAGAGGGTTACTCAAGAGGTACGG | -0.282
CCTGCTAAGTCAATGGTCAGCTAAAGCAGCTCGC | -0.517
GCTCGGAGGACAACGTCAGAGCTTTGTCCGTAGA | -1.15
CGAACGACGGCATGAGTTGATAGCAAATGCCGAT | -1.11
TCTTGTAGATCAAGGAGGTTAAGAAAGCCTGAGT | 0.459
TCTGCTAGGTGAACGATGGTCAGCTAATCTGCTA | -0.499
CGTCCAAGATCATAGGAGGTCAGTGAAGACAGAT | 2.26

Taken from the supplement of paper PMC6555819.
